System: 3T3 fibroblast cells
Assay: In vitro phototoxicity assay (neutral red; UV light-treated vs dark control plates)
Format: cell-based
Conditions: dark control plate
Exercise: state measured Photo Toxicity Dark Tox50 for each of the compounds provided.

Prompt: Return reported Photo Toxicity Dark Tox50; argument: CN(C)CC/C(=N\OC(C)(C)C)c1ccc(O)c2c1C[C@H]1C[C@H]3[C@H](N(C)C)C(O)=C(C(N)=O)C(=O)[C@@]3(O)C(O)=C1C2=O
Response: >136.86 µM

Prompt: Return reported Photo Toxicity Dark Tox50; argument: CC(=O)NCCC(=O)c1ccc(O)c2c1C[C@H]1C[C@H]3[C@H](N(C)C)C(O)=C(C(N)=O)C(=O)[C@@]3(O)C(O)=C1C2=O
Response: >159.57 µM

Prompt: Return reported Photo Toxicity Dark Tox50; argument: CCOC(=O)CCNC(=O)c1cccc(-c2ccc(O)c3c2C[C@H]2C[C@H]4[C@H](N(C)C)C(O)=C(C(N)=O)C(=O)[C@@]4(O)C(O)=C2C3=O)c1
Response: >141.76 µM

Prompt: Return reported Photo Toxicity Dark Tox50; argument: CN(C)[C@@H]1C(O)=C(C(N)=O)C(=O)[C@@]2(O)C(O)=C3C(=O)c4c(O)ccc(-c5cccc(C(=O)NCc6ccco6)c5)c4C[C@H]3C[C@@H]12
Response: >146.13 µM

Prompt: Return reported Photo Toxicity Dark Tox50; argument: CN(C)[C@@H]1C(O)=C(C(N)=O)C(=O)[C@@]2(O)C(O)=C3C(=O)c4c(O)ccc(C(=O)CNCc5cccn5C)c4C[C@H]3C[C@@H]12
Response: >133.53 µM

Prompt: Return reported Photo Toxicity Dark Tox50; argument: CN(C)[C@@H]1C(O)=C(C(N)=O)C(=O)[C@@]2(O)C(O)=C3C(=O)c4c(O)ccc(C(=O)CNCc5ccco5)c4C[C@H]3C[C@@H]12
Response: >144.12 µM

Prompt: Return reported Photo Toxicity Dark Tox50; argument: CN(C)[C@@H]1C(O)=C(C(N)=O)C(=O)[C@@]2(O)C(O)=C3C(=O)c4c(O)ccc(C(=O)Cn5ccnc5)c4C[C@H]3C[C@@H]12
Response: >161.01 µM

Prompt: Return reported Photo Toxicity Dark Tox50; argument: COCCNC(=O)c1cccc(-c2ccc(O)c3c2C[C@H]2C[C@H]4[C@H](N(C)C)C(O)=C(C(N)=O)C(=O)[C@@]4(O)C(O)=C2C3=O)c1
Response: >151.25 µM

Prompt: Return reported Photo Toxicity Dark Tox50; argument: CN(C)CCNC(=O)c1ccc(-c2ccc(O)c3c2C[C@H]2C[C@H]4[C@H](N(C)C)C(O)=C(C(N)=O)C(=O)[C@@]4(O)C(O)=C2C3=O)cc1
Response: >140.2 µM

Prompt: Return reported Photo Toxicity Dark Tox50; argument: CN(CCC#N)Cc1cccc(-c2ccc(O)c3c2C[C@H]2C[C@H]4[C@H](N(C)C)C(O)=C(C(N)=O)C(=O)[C@@]4(O)C(O)=C2C3=O)c1
Response: >136.45 µM

Prompt: Return reported Photo Toxicity Dark Tox50; argument: CC(C)N(CCNC(=O)c1cccc(-c2ccc(O)c3c2C[C@H]2C[C@H]4[C@H](N(C)C)C(O)=C(C(N)=O)C(=O)[C@@]4(O)C(O)=C2C3=O)c1)C(C)C
Response: >133.57 µM
